System: A549
Assay: relative viability (nuclei count vs DMSO), 5 days (fraction); higher = more cells survive
Details: first compound 158.11 µM
I'd appreciate it if you marked entries Criterion met when relative viability is lower than 0.3 and Criterion not met when it is not.

Inquiry: Please let me know if O=C(O)CCCCC(CCSCc1ccccc1)SCc1ccccc1 (stereo not given) [CPI-613] + CS(=O)(=O)CCNCc1ccc(-c2ccc3ncnc(Nc4ccc(OCc5cccc(F)c5)c(Cl)c4)c3c2)o1 [Lapatinib] (partner 2 µM) shows relative viability below 0.3.
Reply text: Criterion not met

Inquiry: Please let me know if O=C(O)CCCCC(CCSCc1ccccc1)SCc1ccccc1 (stereo not given) [CPI-613] + C[C@@H](Oc1cc(-c2cnn(C3CCNCC3)c2)cnc1N)c1c(Cl)ccc(F)c1Cl [Crizotinib] (partner 1 µM) shows relative viability below 0.3.
Reply text: Criterion met

Inquiry: Please let me know if O=C(O)CCCCC(CCSCc1ccccc1)SCc1ccccc1 (stereo not given) [CPI-613] + CS(=O)(=O)N1CCN(Cc2cc3nc(-c4cccc5[nH]ncc45)nc(N4CCOCC4)c3s2)CC1 [Pictilisib] (partner 1 µM) shows relative viability below 0.3.
Reply text: Criterion met

Inquiry: Please let me know if O=C(O)CCCCC(CCSCc1ccccc1)SCc1ccccc1 (stereo not given) [CPI-613] + O=C(c1cc(Cc2n[nH]c(=O)c3ccccc23)ccc1F)N1CCN(C(=O)C2CC2)CC1 [Olaparib] (partner 8 µM) shows relative viability below 0.3.
Reply text: Criterion not met
